Test system: rabbit vWF A1 domain (SEQ ID NO 6)
Sequence (as listed by the source): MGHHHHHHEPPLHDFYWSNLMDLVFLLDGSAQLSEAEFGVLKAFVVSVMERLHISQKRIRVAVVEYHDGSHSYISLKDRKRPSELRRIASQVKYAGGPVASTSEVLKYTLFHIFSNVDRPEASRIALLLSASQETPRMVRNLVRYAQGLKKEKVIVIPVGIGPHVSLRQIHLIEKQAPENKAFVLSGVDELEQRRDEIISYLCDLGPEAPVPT
Experiment: 3-point dot blot screen, rabbit vWF A1 domain
Assay type: binding
Settings: rRdY aptamers; 100 nM rabbit vWF A1 domain; ratio of fraction bound with target to without
Oligonucleotides are written 5' to 3', each unit as a sugar letter and its base; * is a phosphorothioate linkage, no mark a phosphodiester; rarer units and linkages stand in square brackets, end groups in braces. Plain capitals give the bases only. d = 2'-deoxy (DNA); r = 2'-OH (RNA)
READOUT TYPE: Screen- Rabbit/No Protein
Would you mind answering with just the numeric figure?

Use the examples below as a reference point.
AMX205.D11: rRdY aptamer clone (nucleic acid) rGrGrArGdCrGdCrAdCdTdCrArGdCdCrAdCrGrGdCrAdCrGrAdCrGrGdTrGrAdTrGrArAdTdTrArGdCrGdCrGrGdTrGdTdCrGrGdTrGrGdTrGdTdCrAdTdTdTdCrGrAdCdCdTdCdTdCdTrGdCdTrArGdC : 2.07
AMX206.D8: rRdY aptamer clone (nucleic acid) rGrGrArGdCrGdCrAdCdTdCrArGdCdCrAdCrGrAdCrGrGdTrGrAdTrGrGrAdTdTrArGdCrGdCrGrGdTrGrGrAdTdCdTdTrArAdCrGdTrGdCrGrArGdTdTdTdCrGrAdCdCdTdCdTdCdTrGdCdTrArGdC : 3.76

Form field: reported Screen- Rabbit/No Protein of AMX206.E7: rRdY aptamer clone (nucleic acid) rGrGrArGdCrGdCrAdCdTdCrArGdCdCrAdCrGrGrArGdCrGdTdCrGrGdTrGrAdTrGrGrAdTdTrArGdCrGdCrGrGdCdTdCdCrGdTrGrGdTrAdCrAdCdCdTdTdTdCrGrAdCdCdTdCdTdCdTrGdCdTrArGdC
2.26
